# Tested on: HCC1937 cells
# procedure_text: MTT cytotoxicity dose-response assay, HCC1937
# Assay type: cell-based, human
# protocol_conditions: 72 h treatment, a/b/c = one, two, three or more dose-response curves
measurement_kind: pIC50
Units for pIC50: none; it is -log10 of a concentration expressed in mol/L.

Fill in the blank: the reported pIC50 of C=C1C(=O)O[C@@H]2[C@H]3C(C)=CC(=O)C3=C(C)CC[C@@H]12 [Compound 14, dehydroleucodin] is ____.
5.28

Repeat with C=C1C(=O)OC2C1CCC1(C)C(=O)C=CC(C)(O)C21 (centres unmarked) [Compound 11, 11,13-didehydrovulgarin]
5.11

Next compound up: C=C1C(=O)OC2C1CCC1(C)C(O)CCC(=C)C21 (stereo not drawn) [Compound 7, 1-epi-reynosin]
4.73

// query: C=C1C(=O)O[C@@H]2/C=C(\C)CC/C=C(\C)CC[C@@H]12 [Compound 1, costunolide]
5.38

Repeat for the following compound: C=C1C(=O)O[C@H]2[C@H]1CCC(C)=C1[C@@H](OC(C)=O)[C@H]3O[C@@]3(C)[C@@H]12
5.11

----------
# System: SK-BR-3 cells
# procedure_text: MTT cytotoxicity dose-response assay, SK-BR-3
# Format: cell-based, human
# protocol_conditions: Homo sapiens, SK-BR-3, 72 h, 72 h treatment, a/b/c = one, two, three or more dose-response curves
What IC50 was measured for each of the following?
# number only, unit µM dropped from output

Which IC50 value belongs to C=C1CC[C@@H](O)[C@]2(C)CC[C@H]3C(=C)C(=O)O[C@@H]3[C@@H]12 [Compound 6, reynosin] ?
5.2

Do the same for C=C(C(=O)OC)C1CCC2(C)C(O)CCC(=C)C2C1O (stereo not shown) [Compound 16, baynol C] please
9.9

Another compound to look at: C=C1C(=O)O[C@H]2[C@H]1CCC(C)=C1[C@@H](OC(C)=O)[C@H]3O[C@@]3(C)[C@@H]12 [Compound 12]
4.2

# iterate: C=C1C(=O)OC2C1CCC1(C)C(O)CCC(=C)C21 (stereo not drawn) [Compound 7, 1-epi-reynosin]
7.6
